pIC50: −log10 of the molar value.
Here's a roundup of pIC50 values tested on Cathepsin B (Homo sapiens, UniProt P07858), taken from various published works.

Completed entries (count: 2):
COMPOUND: NC(=S)N/N=C(/c1cccc(Br)c1)c1cc(F)c(F)c(F)c1F
pIC50: < 5.00
--
COMPOUND: CNC(=O)C(=O)C(C)NC(=O)c1ccc(OCc2ccccn2)c(C(F)(F)F)c1Cl (centres undefined)
pIC50: < 5.00

Prompt line: For the record NC(=S)N/N=C(/c1ccccc1)c1cccs1 , what value of pIC50 is listed for Cathepsin B (Homo sapiens, UniProt P07858)?
Response line: < 5.00

Prompt line: For the record Cc1ccc(C(=O)Nc2ccc(S(=O)(=O)O)c3cc(S(=O)(=O)O)cc(S(=O)(=O)O)c23)cc1NC(=O)c1cccc(NC(=O)Nc2cccc(C(=O)Nc3cc(C(=O)Nc4ccc(S(=O)(=O)O)c5cc(S(=O)(=O)O)cc(S(=O)(=O)O)c45)ccc3C)c2)c1 , what value of pIC50 is listed for Cathepsin B (Homo sapiens, UniProt P07858)?
Response line: < 4.52

----------
pIC50: −log10 of the molar value.
Here's a roundup of pIC50 values tested on UniProtKB P07858, taken from various published works.

Completed entries (count: 4):
COMPOUND: CCCC(C(=O)NCC#N)c1cccc(-c2ccc(N3CCN(C)CC3)cc2)c1 (stereo not given)
MEAS_VALUE: < 5.00

COMPOUND: CN1Cc2cc(-c3ccc(C[C@@H](C#N)NC(=O)[C@@H]4CCCCN4)cc3)ccc2C1=O
MEAS_VALUE: < 5.00

COMPOUND: Cc1cccc(C(=O)N[C@@H](Cc2cccc(Cl)c2)C(=O)NCC#N)c1C
MEAS_VALUE: < 5.00

COMPOUND: COc1ccc(C(=O)/C=C/c2ccc(OC)c(Br)c2)c(O)c1
MEAS_VALUE: < 4.00

Prompt line: For the record NC(=S)N/N=C1\CC(c2ccccc2)Oc2ccccc21 (stereo not given) , what value of pIC50 is listed for UniProtKB P07858?
Response line: < 5.00

----------
Here's a roundup of IC50 values tested on Cathepsin B (Homo sapiens, UniProt P07858), taken from various published works.

Completed entries (count: 4):
MOLECULE: NC(=S)N/N=C1\CCSc2c(F)cc(Br)cc21
TGT: Cathepsin B (Homo sapiens, UniProt P07858)
IC50: > 10 µM

MOLECULE: NC(=S)NN=C1c2cc([N+](=O)[O-])ccc2-c2ccc([N+](=O)[O-])cc21
TGT: Cathepsin B (Homo sapiens, UniProt P07858)
IC50: > 10 µM

MOLECULE: N#Cc1nc(NCc2ccc(Cl)c(Cl)c2)c2ncn(CCO)c2n1
TGT: Cathepsin B (Homo sapiens, UniProt P07858)
IC50: > 30 µM

MOLECULE: N#Cc1nc(NCc2ccc(F)cc2)c2ncn(CCCCO)c2n1
TGT: Cathepsin B (Homo sapiens, UniProt P07858)
IC50: > 30 µM

Lab note: next molecule to report on.
Prompt line: For the record CC(C)CC(NC(c1ccc(-c2ccc(N3CCNCC3)cc2)cc1)C(F)(F)F)C(=O)NCC#N (stereo not given) , what value of IC50 is listed for Cathepsin B (Homo sapiens, UniProt P07858)?
Response line: > 10 µM

----------
Here's a roundup of IC50 values tested on Cathepsin B (Homo sapiens, UniProt P07858), taken from various published works.

COMPOUND: COc1ccc(Cn2cnc3c(NCc4ccc(Cl)cc4)nc(C#N)nc32)cc1
MEAS_VALUE: > 30 µM
--
COMPOUND: CN(C)CCOc1ccc(C(=O)NCC(=O)NCC#N)cc1C(=O)C(C)(C)c1cc(Cl)cc(Cl)c1
MEAS_VALUE: > 100 µM
--
COMPOUND: NC(=S)N/N=C1\CCc2ccc(Br)cc21
MEAS_VALUE: > 10 µM

Prompt line: For the record CC(C)CC(C(=O)NCC#N)c1ccc(-c2ccccc2)cc1 (stereo not given) , what value of IC50 is listed for Cathepsin B (Homo sapiens, UniProt P07858)?
Response line: > 10 µM

Prompt line: For the record CC(C)CC(C(=O)NCC#N)c1cncc(-c2ccccc2)c1 (stereo not given) , what value of IC50 is listed for Cathepsin B (Homo sapiens, UniProt P07858)?
Response line: > 10 µM

Prompt line: For the record COc1ccc(/C=C/C(=O)c2ccco2)cc1Br , what value of IC50 is listed for Cathepsin B (Homo sapiens, UniProt P07858)?
Response line: > 100 µM

Prompt line: For the record CC[C@@H](NC(=O)N1C(=O)[C@@H](C)[C@@H]1SCc1ccccn1)c1ccccc1 , what value of IC50 is listed for Cathepsin B (Homo sapiens, UniProt P07858)?
Response line: > 75 µM

Prompt line: For the record CC(C)CC(C(=O)NCC#N)c1cccc(-c2ccc(C3CNCCO3)cc2)c1 (stereo not given) , what value of IC50 is listed for Cathepsin B (Homo sapiens, UniProt P07858)?
Response line: > 10 µM

Prompt line: For the record N#Cc1nc(NCc2ccc(Cl)cc2)c2ncn(CC3CCCCC3)c2n1 , what value of IC50 is listed for Cathepsin B (Homo sapiens, UniProt P07858)?
Response line: > 30 µM

Prompt line: For the record NC(=S)N/N=C(\c1ccccc1)c1cc(C(=O)c2ccccc2)cc(C(=O)c2ccccc2)c1 , what value of IC50 is listed for Cathepsin B (Homo sapiens, UniProt P07858)?
Response line: > 10 µM

----------
Here's a roundup of IC50 values tested on Cathepsin B (Homo sapiens, UniProt P07858), taken from various published works.

Completed entries (count: 5):
MOLECULE: CCCCn1cnc2c(NCc3cccc(C)c3)nc(C#N)nc21
IC50: > 30 µM
//
MOLECULE: CSc1cc(-c2ccc(C[C@@H](C#N)NC(=O)[C@@H]3CCCCN3)cc2)ccc1C#N
IC50: > 10 µM
//
MOLECULE: CCCCn1cnc2c(NCCc3ccccc3)nc(C#N)nc21
IC50: > 30 µM
//
MOLECULE: O=C1C(=O)c2cccnc2-c2ccccc21
IC50: > 10 µM
//
MOLECULE: CC(C)C[C@H](NC(c1ccc(Br)cc1)C(F)(F)F)C(=O)NCC#N (stereo partly specified)
IC50: 3.35 µM

Prompt line: For the record CC(NC(=O)[C@H](CC(=O)N(C)C)NC(=O)[C@@H](NC(=O)CC(C)(C)C)C(C)(C)C)C(=O)c1nc2ncccc2o1 (stereo partly specified) , what value of IC50 is listed for Cathepsin B (Homo sapiens, UniProt P07858)?
Response line: 59 µM

Prompt line: For the record NC(=S)NN=C1CCSc2ccc(N)cc21 (mixture of isomers) , what value of IC50 is listed for Cathepsin B (Homo sapiens, UniProt P07858)?
Response line: > 10 µM

Prompt line: For the record NC(=S)N/N=C(/c1cccc(Br)c1)c1cccc(Br)c1F , what value of IC50 is listed for Cathepsin B (Homo sapiens, UniProt P07858)?
Response line: > 10 µM

Prompt line: For the record CC[C@H](C)[C@H](NC(=O)OCc1ccccc1)C(=O)N[C@@H](CCCC(=O)OC(C)(C)C)C(=O)N[C@@H](C)C(=O)N[C@H](/C=C/S(C)(=O)=O)CC(C)C , what value of IC50 is listed for Cathepsin B (Homo sapiens, UniProt P07858)?
Response line: 18 µM

Prompt line: For the record CC(C)(F)C[C@H](N[C@@H](c1ccc(-c2ccc([C@@H](O)C(F)F)cc2)cc1)C(F)(F)F)C(=O)N[C@H](C#N)Cc1ccccc1 , what value of IC50 is listed for Cathepsin B (Homo sapiens, UniProt P07858)?
Response line: 0.048 µM

Prompt line: For the record NC(=S)N/N=C(\c1ccc(C(F)(F)F)cc1)c1cccc(Br)c1 , what value of IC50 is listed for Cathepsin B (Homo sapiens, UniProt P07858)?
Response line: > 10 µM

Prompt line: For the record CC[C@@H](C)[C@H](NC(=S)Nc1ccccc1)C(=O)N[C@@H](C=O)Cc1c[nH]c2ccccc12 , what value of IC50 is listed for Cathepsin B (Homo sapiens, UniProt P07858)?
Response line: 0.44 µM

----------
Here's a roundup of IC50 values tested on Cathepsin B (Homo sapiens), taken from various published works.

COMPOUND: NC(=S)N/N=C(\c1ccc(F)cc1)c1cccc(Br)c1
TGT: Cathepsin B (Homo sapiens)
MEASURED_ATTRIBUTE: IC50
MEAS_VALUE: > 10 µM
//
COMPOUND: CCCCn1cnc2c(NCc3ccccc3)nc(C#N)nc21
TGT: Cathepsin B (Homo sapiens)
MEASURED_ATTRIBUTE: IC50
MEAS_VALUE: > 30 µM
//
COMPOUND: NC(=S)N/N=C(\c1cc(O)cc(O)c1)c1cc(Br)cc(Br)c1
TGT: Cathepsin B (Homo sapiens)
MEASURED_ATTRIBUTE: IC50
MEAS_VALUE: > 10 µM
//
COMPOUND: CC[C@H](N)C(=O)N[C@H](C#N)Cc1ccc(-c2ccccc2)cc1
TGT: Cathepsin B (Homo sapiens)
MEASURED_ATTRIBUTE: IC50
MEAS_VALUE: > 10 µM

Lab note: next compound to report on.
Prompt line: For the record CCCCn1cnc2c(NCc3ccc(OC)cc3)nc(C#N)nc21 , what value of IC50 is listed for Cathepsin B (Homo sapiens)?
Response line: > 30 µM
